Recorded TGI by entry
# Tested on: SK-MEL-2 melanoma
# Test Protocol: NCI tumour cell line growth inhibition, 48 h

Reference set (5 entries):
>  <Compound>
COc1cc(CC(=O)O)c([N+](=O)[O-])cc1OC

>  <TGI>
> 100 µM

$$$$
>  <Compound>
COc1cc2c(cc1-c1coc3cc(O)ccc3c1=O)OCO2

>  <TGI>
> 100 µM

$$$$
>  <Compound>
C[C@]12CC[C@@H]3c4ccc(OC(=O)N(CCCl)CCCl)cc4CC[C@H]3[C@@H]1CC[C@@H]2OP(=O)(O)O

>  <TGI>
> 100 µM

$$$$
>  <Compound>
[O-][N+]1=C2CCC/C(=N/O)C2(O)C2CCCCC21N1CCOCC1 (stereo unspecified)

>  <TGI>
> 100 µM

$$$$
>  <Compound>
CC(C)[Si](Oc1ccc(CC2N(C(=O)c3ccc([N+](=O)[O-])cc3)C(CCc3ccccc3)CC2(C)C=O)cc1)(C(C)C)C(C)C (stereo unspecified)

>  <TGI>
> 100 µM

$$$$

Q: Which TGI is listed for COC(=O)C1=CC(=O)[C@@H]2CCCC[C@H]12 ?
Ans: > 100 µM
